- TARGET_SYSTEM: Recombinant STAT6 protein (STAT6 (W123-T658)) (Homo sapiens, UniProt P42226)
- Construct: Recombinant STAT6 protein (STAT6 (W123-T658))
- Sequence (P42226 123-658): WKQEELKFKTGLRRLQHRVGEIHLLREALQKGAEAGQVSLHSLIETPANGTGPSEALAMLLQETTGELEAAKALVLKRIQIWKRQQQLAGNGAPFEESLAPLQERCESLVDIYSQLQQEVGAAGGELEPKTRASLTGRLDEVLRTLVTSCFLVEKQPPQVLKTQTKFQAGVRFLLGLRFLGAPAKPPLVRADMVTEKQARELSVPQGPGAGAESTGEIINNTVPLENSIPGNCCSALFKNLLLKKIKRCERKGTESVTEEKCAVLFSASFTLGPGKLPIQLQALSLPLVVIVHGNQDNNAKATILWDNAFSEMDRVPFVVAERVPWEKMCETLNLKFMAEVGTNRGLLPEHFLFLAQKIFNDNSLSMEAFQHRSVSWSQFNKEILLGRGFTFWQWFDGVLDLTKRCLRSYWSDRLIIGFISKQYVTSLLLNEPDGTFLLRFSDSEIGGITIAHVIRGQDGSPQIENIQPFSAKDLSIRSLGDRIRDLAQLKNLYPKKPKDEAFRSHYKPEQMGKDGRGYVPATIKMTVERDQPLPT
- EXPERIMENT_SUMMARY: STAT6 Fluorescence Polarization (FP) Assay
- Format: binding
- MEASUREMENT_SETUP: STAT6 (W123-T658) 250 nM, probe 5-FAM-Ap[…]-NH2 2 nM, 45-minute incubation; read-out: STAT6 (FP assay IC50 class)
- Procedure: STAT6 Fluorescence Polarization (FP) Assay An FP assay was developed to determine IC50 values for test substances. […] Reaction components were mixed, and FP was measured after 45-minute incubation at room temperature using a Tecan Spark multimode plate reader. FP signal (mP) was plotted against the log concentration of the test substances and IC50 values were calculated by nonlinear regression analysis using GraphPad Prism software. […]
PROPERTY_MEASURED: IC50

Request the reported IC50 associated with O=C(N[C@H]1CC[C@H]2CC[C@@H](C(=O)N3CC(C(=O)N4CCOCC4)C3)N2C1=O)c1cc2cc(C(F)(F)P(=O)(O)O)ccc2s1
3 to 30 µM

Request the reported IC50 associated with Cn1ccc(C2CN(C(=O)[C@@H]3CC[C@@H]4CCC[C@H](NC(=O)c5cc6cc([C@@H](F)P(=O)(O)O)ccc6s5)C(=O)N43)C2)cc1=O (single isomer, unassigned)
3 to 30 µM

Request the reported IC50 associated with O=C(N[C@H]1CCC[C@H]2CC[C@@H](C(=O)N3CC(c4nccc(O)n4)C3)N2C1=O)c1cc2cc(C(F)(F)P(=O)(O)O)ccc2s1
3 to 30 µM

Data credit: patent US20250215029A1
